System: Mycobacterium tuberculosis
EXPERIMENT DESCRIPTION: Antimycobacterial activity against Mycobacterium tuberculosis H37Rv ATCC 27294 after 5 days by microplate alamar blue assay
Type: functional
MEASUREMENT PARAMETERS: H37Rv ATCC 27294, 120 h
PROPERTY LABEL: log10 of MIC99 (log10 of the value in µg/mL)
Annotation: log10 of MIC99, µg/mL basis.

- COMPOUND: "O=C(c1cccs1)N1CCN(c2nc3ccccc3c3ccccc23)CC1"
  TARGET OR SYSTEM: "Mycobacterium tuberculosis"
  log10 of MIC99: 1.70
- COMPOUND: "O=C(CCCc1c[nH]c2ccccc12)N1CCN(c2nc3ccccc3c3ccccc23)CC1"
  TARGET OR SYSTEM: "Mycobacterium tuberculosis"
  log10 of MIC99: 0.19
- COMPOUND: "N#CCC(=O)N1CCN(c2nc3ccccc3c3ccccc23)CC1"
  TARGET OR SYSTEM: "Mycobacterium tuberculosis"
  log10 of MIC99: 1.40
- COMPOUND: "O=C(O)c1cccc(C(=O)N2CCN(c3nc4ccccc4c4ccccc34)CC2)n1"
  TARGET OR SYSTEM: "Mycobacterium tuberculosis"
  log10 of MIC99: 0.50
- COMPOUND: "O=C(/C=C/c1ccccc1)N1CCN(c2nc3ccccc3c3ccccc23)CC1"
  TARGET OR SYSTEM: "Mycobacterium tuberculosis"
  log10 of MIC99: 1.10

The compound identified as O=C(c1ccccc1)N1CCN(c2nc3ccccc3c3ccccc23)CC1 registered its log10 of MIC99 at 0.50

The compound identified as O=C(c1cccc([N+](=O)[O-])c1)N1CCN(c2nc3ccccc3c3ccccc23)CC1 registered its log10 of MIC99 at 0.50

The compound identified as O=S(=O)(c1ccc(Br)cc1)N1CCN(c2nc3ccccc3c3ccccc23)CC1 registered its log10 of MIC99 at 0.50

The compound identified as O=C(CCc1c[nH]c2ccccc12)N1CCN(c2nc3ccccc3c3ccccc23)CC1 registered its log10 of MIC99 at 0.80

The compound identified as O=S(=O)(c1ccc(Cl)cc1)N1CCN(c2nc3ccccc3c3ccccc23)CC1 registered its log10 of MIC99 at 0.50

The compound identified as NC(=O)c1cnccn1 [PYRAZINAMIDE] registered its log10 of MIC99 at 0.80

The compound identified as O=C(c1ccc(Cl)cc1)N1CCN(c2nc3ccccc3c3ccccc23)CC1 registered its log10 of MIC99 at 1.10

The compound identified as O=S(=O)(c1ccc(F)cc1)N1CCN(c2nc3ccccc3c3ccccc23)CC1 registered its log10 of MIC99 at 0.80

The compound identified as Cc1cc(S(=O)(=O)N2CCN(c3nc4ccccc4c4ccccc34)CC2)c(C)cc1Cl registered its log10 of MIC99 at 0.80

The compound identified as CO[C@H]1/C=C/O[C@@]2(C)Oc3c(C)c(O)c4c(O)c(c(/C=N/N5CCN(C)CC5)c(O)c4c3C2=O)NC(=O)/C(C)=C\C=C\[C@H](C)[C@H](O)[C@@H](C)[C@@H](O)[C@@H](C)[C@H](OC(C)=O)[C@@H]1C registered its log10 of MIC99 at -0.70

The compound identified as O=C(c1cc([N+](=O)[O-])cc([N+](=O)[O-])c1)N1CCN(c2nc3ccccc3c3ccccc23)CC1 registered its log10 of MIC99 at 1.40

The compound identified as Cc1cc(C)c(S(=O)(=O)N2CCN(c3nc4ccccc4c4ccccc34)CC2)c(C)c1 registered its log10 of MIC99 at 1.10

The compound identified as CC(=O)c1ccc(S(=O)(=O)N2CCN(c3nc4ccccc4c4ccccc34)CC2)cc1 registered its log10 of MIC99 at 1.40

The compound identified as O=C(Cc1c[nH]c2ccccc12)N1CCN(c2nc3ccccc3c3ccccc23)CC1 registered its log10 of MIC99 at 1.40

Recorded values, source ChEMBL document CHEMBL4000144.
